Just for reference, PubChem BioAssay AID1347419 is where these values come from.

- target_entity: Protein-tyrosine kinase 2-beta (Homo sapiens) (UniProt Q14289)
- Sequence (Q14289 whole entry, looked up): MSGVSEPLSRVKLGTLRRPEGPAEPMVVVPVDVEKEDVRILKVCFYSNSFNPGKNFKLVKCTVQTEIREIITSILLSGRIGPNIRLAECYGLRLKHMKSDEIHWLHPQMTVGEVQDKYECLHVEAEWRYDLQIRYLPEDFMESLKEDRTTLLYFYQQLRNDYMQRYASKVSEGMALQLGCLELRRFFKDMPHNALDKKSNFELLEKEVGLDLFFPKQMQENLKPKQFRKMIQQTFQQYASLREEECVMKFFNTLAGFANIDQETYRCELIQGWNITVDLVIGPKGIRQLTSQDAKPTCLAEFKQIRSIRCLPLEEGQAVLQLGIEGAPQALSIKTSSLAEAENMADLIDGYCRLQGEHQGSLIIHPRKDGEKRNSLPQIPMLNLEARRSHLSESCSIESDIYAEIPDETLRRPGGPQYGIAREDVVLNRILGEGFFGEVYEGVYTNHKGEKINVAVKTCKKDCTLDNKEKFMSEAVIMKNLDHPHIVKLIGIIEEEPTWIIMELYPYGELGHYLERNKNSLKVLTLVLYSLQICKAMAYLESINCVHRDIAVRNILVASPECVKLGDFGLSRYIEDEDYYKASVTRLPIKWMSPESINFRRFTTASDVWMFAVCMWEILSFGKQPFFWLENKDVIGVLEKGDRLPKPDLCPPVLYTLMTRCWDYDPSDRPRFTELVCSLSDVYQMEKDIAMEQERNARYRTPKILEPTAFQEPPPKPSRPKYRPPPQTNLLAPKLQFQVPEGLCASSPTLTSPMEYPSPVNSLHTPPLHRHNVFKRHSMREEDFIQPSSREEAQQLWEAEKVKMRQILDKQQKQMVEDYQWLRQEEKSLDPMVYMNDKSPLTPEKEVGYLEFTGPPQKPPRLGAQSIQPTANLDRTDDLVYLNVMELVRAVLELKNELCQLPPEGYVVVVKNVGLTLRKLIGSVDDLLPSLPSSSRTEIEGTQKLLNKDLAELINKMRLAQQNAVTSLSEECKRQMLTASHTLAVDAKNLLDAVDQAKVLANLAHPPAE
- protocol_description: antagonists of Pyk2 self-association, primary screen, Q293 cells, FERM NanoBiT luminescence, HTS (AID 1347419);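 also: the deposit names both 25 µM and 10 µM; negative z-score means lost luminescence so less FERM oligomerization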
- Design: dose or concentration left out as unconfirmed
Out of some 99,000 compounds screened, about 820 (0.83%) were called active.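 The calls were made as follows: active = Z-score of -3 or lower, scaled per plate to the spread of control and sample wells; inactive = z-score above -3.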 Many of the other results were omitted from the sample, so actives are more common in it than they were.
One label from this list, please: active, inactive

Task: # fetch the recorded call for CC(C)Nc1nnc(SCC(=O)c2c[nH]c3ccccc23)s1 here
Result: inactive

***
Task: Could you check what this test reported for Cc1ccccc1NC(=O)c1ccccc1NS(=O)(=O)c1cccc2cccnc12 ?
Result: inactive

Task: Record lookup: outcome of this test for Cc1nc2ccccc2n1CC(=O)N/N=C/c1cccs1 ?
Result: inactive

Task: For this compound, state the assay outcome: CC(NC(=O)COC(=O)C1CCN(S(=O)(=O)c2ccccc2C(F)(F)F)CC1)c1ccccc1 (stereo not given)
Result: inactive

====

- target_entity: Protein-tyrosine kinase 2-beta (Homo sapiens) (UniProt Q14289)
- protocol_description: antagonists of Pyk2 self-association, primary screen, Q293 cells, FERM NanoBiT luminescence, HTS (AID 1347419)
- Set-up: dose or concentration left out as unconfirmed
The campaign covered roughly 99,000 compounds. About 820 (0.83%) were called active.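 Rule for the calls: active = Z-score of -3 or lower, scaled per plate to the spread of control and sample wells; inactive = z-score above -3.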 What follows is part of a selection rich in actives, with near analogues and random picks from the rest.
// classify into 1 (yes) (active), 0 (no) (inactive)

Task: Test call for this compound, please: CCOC(=O)c1c(NC(=O)C2CCN(S(=O)(=O)c3ccc(Cl)cc3)CC2)sc2c1CCCC2
Result: 0 (no)

Task: Short answer needed: outcome of this test for O=C(N/N=C/c1cccc([N+](=O)[O-])c1)C1CC(=O)N(c2ccc(Br)cc2)C1 (stereo unspecified) ?
Result: 0 (no)

Task: Which outcome was entered for the compound CCOc1ccc(NC(=O)c2ccccc2NS(C)(=O)=O)cc1 in this test?
Result: 0 (no)

====

- target_entity: Protein-tyrosine kinase 2-beta (Homo sapiens) (UniProt Q14289)
- protocol_description: antagonists of Pyk2 self-association, primary screen, Q293 cells, FERM NanoBiT luminescence, HTS (AID 1347419)
- Design: dose or concentration left out as unconfirmed
In all, about 99,000 compounds went through this assay and about 820 (0.83%) were called active.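 Rule for the calls: active = Z-score of -3 or lower, scaled per plate to the spread of control and sample wells; inactive = z-score above -3.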 The full list was thinned out, with actives kept by preference.
Would you mind answering with one of these outcomes? yes (active), no (inactive)

Reference set, count: 4
Task: Each compound tested received a call. Report the one for O=C(NC(=S)NC1CCSC1=O)c1ccccc1F (stereo not drawn) .
Result: no

Task: So what was the verdict on CCCCC(NS(=O)(=O)c1ccc(C)cc1)C(=O)Oc1ccc2c3c(c(=O)oc2c1)CCC3 (stereo not drawn) in this test?
Result: no

Task: Called result for COC(=O)c1ccccc1NC(=O)c1ccccc1NS(C)(=O)=O
Result: no

Task: Give the logged outcome of this assay for the following compound: CCCc1nc2ccccc2c(C(=O)OCC(=O)c2ccc3c(c2)NC(=O)CO3)c1CC
Result: no

***
Task: Please share the test call associated with COCCCNC(=O)CNC(=S)N(Cc1cc(OC)c(OC)c(OC)c1)C1CCCC1 .
Result: no

Task: # lookup: test call for Cc1nc(-c2ccccc2)sc1C(=O)/C=C/c1ccccc1
Result: no

Task: Identify the outcome logged in this assay for the compound shown: CC(=O)Nn1cc2c(=O)n(C)c(=O)n(C)c2c1
Result: no

Task: Record lookup: outcome of this test for COc1ccc(C(=O)NNS(=O)(=O)c2ccc(C)cc2)cc1 ?
Result: no

====

- target_entity: Protein-tyrosine kinase 2-beta (Homo sapiens) (UniProt Q14289)
- protocol_description: antagonists of Pyk2 self-association, primary screen, Q293 cells, FERM NanoBiT luminescence, HTS (AID 1347419);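 also: the deposit names both 25 µM and 10 µM; negative z-score means lost luminescence so less FERM oligomerization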
- Parameters: dose or concentration left out as unconfirmed
The campaign covered roughly 99,000 compounds. About 820 (0.83%) were called active.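 The calls were made as follows: active = Z-score of -3 or lower, scaled per plate to the spread of control and sample wells; inactive = z-score above -3.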 The sample holds actives, similar compounds and a random draw of the others, so the mix is not that of the screen.
Response enum: active, inactive

Task: GET /call?item= CC1(c2cccc([N+](=O)[O-])c2)CC(C)(C)N(C(=O)c2ccccc2)c2ccccc21 (stereo not given) returns the recorded outcome of this test.
Result: inactive

Task: Which outcome did this test record for the compound Cc1ccc(O)c(CCc2ccccc2)n1 ?
Result: inactive

Task: For this compound, state the assay outcome: CCCCN(C)c1ccc([N+](=O)[O-])cc1
Result: inactive

Task: Would you mind telling me which call this test gave Cn1c(=O)c2cn(-c3cccc4ccccc34)cc2n(C)c1=O ?
Result: active

Task: Short answer needed: outcome of this test for CCOC(=O)c1ccc(N/C(=N/S(=O)(=O)c2ccccc2)c2ccccc2)cc1 ?
Result: inactive

Next:
Task: How did this test come out for COC(=O)c1ccc(NC(=O)c2ccccc2NS(=O)(=O)c2ccccc2)cc1 ?
Result: active

Task: Would you mind telling me which call this test gave CCCC(C)C(=O)OCC(=O)Nc1c(Br)cc(C)cc1Br (stereo not given) ?
Result: inactive

Task: Lab log entry: COc1ccc(OC)c(-n2cc3c(=O)n(C)c(=O)n(C)c3c2)c1 — outcome as called in the assay?
Result: inactive

Task: Please let me know the test result on file for N#CC1=C(N)N(c2ccccc2)C2=C(C(=O)CCC2)C1c1ccccc1 (stereo not given) .
Result: inactive

Task: Hi team, can someone confirm the assay call for O=S(=O)(NCCc1ccncc1)c1ccccc1 ?
Result: inactive

====

- target_entity: Protein-tyrosine kinase 2-beta (Homo sapiens)
- protocol_description: antagonists of Pyk2 self-association, primary screen, Q293 cells, FERM NanoBiT luminescence, HTS (AID 1347419);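 also: the deposit names both 25 µM and 10 µM; negative z-score means lost luminescence so less FERM oligomerization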
- Parameters: dose or concentration left out as unconfirmed
Among all 99,000 compounds or so, about 820 (0.83%) were called active.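 Rule for the calls: active = Z-score of -3 or lower, scaled per plate to the spread of control and sample wells; inactive = z-score above -3.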 Only a selection was taken, and actives are over-represented in it overall.
Reply using exactly one outcome from t = active, f = inactive

Task: Could you kindly confirm the outcome this assay logged for NC(=O)CCC(NS(=O)(=O)c1ccc(Cl)cc1)C(=O)NCc1ccccc1Cl (stereo not given) ?
Result: f

Others:
Task: Lab log entry: Cc1[nH]c(=O)c(C(=O)/C=C/c2ccccc2)c2c1CCCC2 — outcome as called in the assay?
Result: t

Task: Tell me the assay call for CC(NC(=O)C(=O)NN=C1CCC(C(C)(C)C)CC1)c1ccccc1 (stereo not given) please.
Result: f

Task: Fill in: this test's call for CCOC(=O)N/N=C/c1cn(Cc2ccccc2Cl)c2ccccc12 is ___
Result: f

====

- target_entity: Protein-tyrosine kinase 2-beta (Homo sapiens) (UniProt Q14289)
- protocol_description: antagonists of Pyk2 self-association, primary screen, Q293 cells, FERM NanoBiT luminescence, HTS (AID 1347419);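 also: the deposit names both 25 µM and 10 µM; negative z-score means lost luminescence so less FERM oligomerization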
- Set-up: dose or concentration left out as unconfirmed
- protocol_conditions: stronger effect = lower value
The campaign covered roughly 99,000 compounds. About 820 (0.83%) were called active. The sample holds actives, similar compounds and a random draw of the others, so the mix is not that of the screen.
Quick list: z-score per entry.
Write the value as a bare number.

Task: // query z-score value for entry O=c1c(Cl)c(NCc2ccc(F)cc2Cl)cnn1C12CC3CC(CC(C3)C1)C2
Result: 0.24

Task: Which z-score reading was recorded for the compound CCOC(=O)c1cc(-c2nnc(-c3cc(OC)c(OC)c(OC)c3)o2)c(C)nc1C ?
Result: 0.08

Task: Item Cc1ccc(NC(=O)CC2C(=O)N(Cc3ccccc3)C(=S)N2NC(=O)c2cccc(F)c2)c(C)c1 (stereo unspecified) has what recorded z-score?
Result: -1.13

Task: // query z-score value for entry CC(=C/c1ccccc1)/C=N/NC(=O)c1cc(C)oc1C
Result: -0.05

Task: Please give the measured z-score for this compound: CC1(C)Cc2cccc(OCC(=O)N3CCN(c4ccc([N+](=O)[O-])cc4)CC3)c2O1
Result: -1.19

Task: Can you share its z-score? I mean this compound: Cc1c(/C=N/N2C(=O)C3C4C=CC(C4)C3C2=O)c2ccccc2n1C (stereo unspecified)
Result: 0.37
